# assayed-system: AGO2 A367P (Homo sapiens, UniProt Q9UKV8 1-859, A367P;S387D;S824A;S828D;S831D;S834A)
# Sequence (Q9UKV8 whole entry A367P/S387D/S824A/S828D/S831D/S834A): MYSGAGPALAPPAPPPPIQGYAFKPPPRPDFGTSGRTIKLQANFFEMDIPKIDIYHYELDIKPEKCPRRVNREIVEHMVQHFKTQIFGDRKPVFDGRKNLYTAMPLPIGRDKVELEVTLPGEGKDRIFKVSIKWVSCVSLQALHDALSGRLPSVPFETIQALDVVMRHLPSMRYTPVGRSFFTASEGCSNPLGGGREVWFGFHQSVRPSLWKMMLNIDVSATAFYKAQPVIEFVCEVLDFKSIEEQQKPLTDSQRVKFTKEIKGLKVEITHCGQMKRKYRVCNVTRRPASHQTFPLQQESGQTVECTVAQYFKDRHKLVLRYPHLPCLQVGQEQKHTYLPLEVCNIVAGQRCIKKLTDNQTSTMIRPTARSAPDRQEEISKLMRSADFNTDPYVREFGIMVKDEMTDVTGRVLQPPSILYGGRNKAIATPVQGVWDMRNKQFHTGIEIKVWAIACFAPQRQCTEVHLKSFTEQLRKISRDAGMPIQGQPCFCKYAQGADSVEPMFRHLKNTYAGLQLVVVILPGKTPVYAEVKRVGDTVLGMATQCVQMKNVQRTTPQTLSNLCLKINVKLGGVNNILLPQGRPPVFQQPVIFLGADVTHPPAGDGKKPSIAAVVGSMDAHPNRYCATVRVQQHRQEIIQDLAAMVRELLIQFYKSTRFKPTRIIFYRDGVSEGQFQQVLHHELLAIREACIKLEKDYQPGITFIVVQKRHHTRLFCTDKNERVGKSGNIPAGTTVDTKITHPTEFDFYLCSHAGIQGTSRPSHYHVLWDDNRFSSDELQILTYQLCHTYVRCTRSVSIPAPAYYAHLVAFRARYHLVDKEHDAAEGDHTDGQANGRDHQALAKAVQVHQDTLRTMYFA
# measurement-protocol: RNA Bind-n-Seq (nitrocellulose filter binding and sequencing); miR-122 guide loaded in AGO2; 60 min incubation; 30 mM Tris pH 8.0, 100 mM potassium acetate, 2 mM magnesium acetate, 0.5 mM TCEP, 0.005% NP-40, 0.01 mg/ml yeast tRNA; 3 nM AGO2-miR-122, 100 nM RNA library; 60; high values mean tight binding
# condition-description: protein: recombinant; tags: His6 (N-terminal, pFastBac HTA)
Would you kindly list binding signal for each of these binders?

Form field binding signal, entry GCGCTCTG (ssRNA, constant regions annealed to DNA blockers; guide miR-122 5' phosphate) RNA 1: GAGUUCUACAGUCCGACGAUCCCAACGCGCUCUGCACCUGGAAUUCUCGGGUGCCAA RNA 2: UGGAGUGUGACAAUGGUGUUUG DNA 1: GATCGTCGGACTGTAGAACTC DNA 2: TTGGCACCCGAGAATTCCA : 0.163 fold enrichment over input

Reported binding signal of ACGTCTCA (ssRNA, constant regions annealed to DNA blockers; guide miR-122 5' phosphate) RNA 1: GAGUUCUACAGUCCGACGAUCCCAACACGUCUCACACCUGGAAUUCUCGGGUGCCAA RNA 2: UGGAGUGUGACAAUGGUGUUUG DNA 1: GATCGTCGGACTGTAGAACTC DNA 2: TTGGCACCCGAGAATTCCA : 0.413 fold enrichment over input

Per the record, ATGCTTTG (ssRNA, constant regions annealed to DNA blockers; guide miR-122 5' phosphate) RNA 1: GAGUUCUACAGUCCGACGAUCCCAACAUGCUUUGCACCUGGAAUUCUCGGGUGCCAA RNA 2: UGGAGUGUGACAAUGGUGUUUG DNA 1: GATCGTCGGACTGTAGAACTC DNA 2: TTGGCACCCGAGAATTCCA has binding signal of 0.12 fold enrichment over input

Lab note: ATACCCTG (ssRNA, constant regions annealed to DNA blockers; guide miR-122 5' phosphate) RNA 1: GAGUUCUACAGUCCGACGAUCCCAACAUACCCUGCACCUGGAAUUCUCGGGUGCCAA RNA 2: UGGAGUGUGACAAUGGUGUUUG DNA 1: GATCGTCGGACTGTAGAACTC DNA 2: TTGGCACCCGAGAATTCCA gave binding signal of 0.126 fold enrichment over input

Query GTGCTCCG (ssRNA, constant regions annealed to DNA blockers; guide miR-122 5' phosphate) RNA 1: GAGUUCUACAGUCCGACGAUCCCAACGUGCUCCGCACCUGGAAUUCUCGGGUGCCAA RNA 2: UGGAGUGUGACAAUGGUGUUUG DNA 1: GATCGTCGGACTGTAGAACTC DNA 2: TTGGCACCCGAGAATTCCA yields binding signal of 0.535 fold enrichment over input

binding signal recorded for this binder, ACGCCTTA (ssRNA, constant regions annealed to DNA blockers; guide miR-122 5' phosphate) RNA 1: GAGUUCUACAGUCCGACGAUCCCAACACGCCUUACACCUGGAAUUCUCGGGUGCCAA RNA 2: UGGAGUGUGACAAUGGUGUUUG DNA 1: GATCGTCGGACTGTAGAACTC DNA 2: TTGGCACCCGAGAATTCCA , is 0.221 fold enrichment over input

GET /value?item= ATGTTCCA (ssRNA, constant regions annealed to DNA blockers; guide miR-122 5' phosphate) RNA 1: GAGUUCUACAGUCCGACGAUCCCAACAUGUUCCACACCUGGAAUUCUCGGGUGCCAA RNA 2: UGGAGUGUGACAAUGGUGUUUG DNA 1: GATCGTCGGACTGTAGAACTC DNA 2: TTGGCACCCGAGAATTCCA &field=binding signal returns 0.299 fold enrichment over input

binding signal for ATGCCCCA (ssRNA, constant regions annealed to DNA blockers; guide miR-122 5' phosphate) RNA 1: GAGUUCUACAGUCCGACGAUCCCAACAUGCCCCACACCUGGAAUUCUCGGGUGCCAA RNA 2: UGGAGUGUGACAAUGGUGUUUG DNA 1: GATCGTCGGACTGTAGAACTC DNA 2: TTGGCACCCGAGAATTCCA is 0.191 fold enrichment over input

Measured values drawn from paper PMC12529666 for this set.
